System: CP291
Assay: qHTS profiling for inhibitors of Plasmodium falciparum proliferation (AID 504749); note: nearly all actives have a fitted effect of over 60% in size
Conditions: P. falciparum in erythrocytes, SYBR Green DNA, 72 h; series mostly up to 28.7 µM
Method: NIH National Institute of Allergy and Infectious Diseases [NIAID] NIH Chemical Genomics Center [NCGC] […] Because mature erythrocytes lack DNA, only Plasmodium-derived DNA is detected. NCGC Assay Protocol Summary: The SYBR Green viability assay was adapted from a method described previously (Plouffe et al., 2008). […] The following morning, fluorescence intensity at 485(14) nm excitation and 535(25) nm emission wavelengths was measured on an EnVision (Perkin Elmer) plate reader. […]
Results filed as inconclusive are left out. Calls of active or inactive are those of the source. Calls come from the whole dose curve; as a rule, active = well fitted inhibition curve with a large enough effect; inconclusive = small, poorly fitted or top-dose-only effect; inactive = flat fitted curve, though single readings scatter.
Your response should consist of one outcome taken from 1.0 (active), 0.0 (inactive)

Before answering, review these 5 worked examples.
| COMPOUND | ASSAYED_SYSTEM | CLASS |
| --- | --- | --- |
| O=CC=O | CP291 | 0.0 |
| O=[N+]([O-])c1ccc(F)c([N+](=O)[O-])c1 | CP291 | 0.0 |
| Oc1cccc[c]1[Hg][Cl] | CP291 | 1.0 |
| CC(=O)O[C@H]1CC[C@H]2[C@@H]3CCC4=CC(=O)CCC4=C3C=C[C@]12C | CP291 | 0.0 |
| CCCCCl | CP291 | 0.0 |

Query: recorded result category for C[C@]12CCC(=O)C[C@@H]1CC[C@@H]1[C@@H]2CC[C@]2(C)[C@@H](O)CC[C@@H]12 in this test 0.0

Query: recorded result category for N#CN in this test 0.0

Query: recorded result category for CC(=O)OC1CN2CCC1CC2 (configuration not stated) in this test 0.0

---

Assay: Primary qHTS for inhibitors of nuclear receptor binding SET domain protein 2 (NSD2) in an isogenic RCH-ACV NSD2 p.E1099K mutant (9B) (AID 1645876); note: nearly all actives have a fitted effect of over 70% in size
Settings: RCH-ACV (leukaemia line) NSD2 E1099K (9B) viability, CellTiter-Glo, 72 h; series mostly up to 44.9 µM
Inconclusive results are not listed. Active and inactive are the calls of the source. Calls follow the shape of the dose curve; as a rule, active = well fitted inhibition curve with a large enough effect; inconclusive = small, poorly fitted or top-dose-only effect; inactive = flat fitted curve, though single readings scatter.
Your response should consist of one outcome taken from 1 (active), -1 (inactive)

Before answering, review these 3 worked examples.
| COMPOUND | CLASS |
| --- | --- |
| CC(=O)OC12C(O)C(C)C3(O)C4C=C(C)C(=O)C4CC(CO)=CC3C1C2(C)C (stereo not drawn) | -1 |
| CN[C@H]1[C@H](O)[C@H](O[C@@H]2[C@@H](O)[C@H](O[C@H]3O[C@H]([C@H](C)O)[C@@H](O)[C@H](O)[C@H]3N)[C@@H](N)C[C@H]2N)OC[C@@]1(C)O | -1 |
| COc1cc(C)[nH]c(=O)c1CNC(=O)c1c(C)n([C@H](C)C2CCOCC2)c2ccccc12 | -1 |

Consider the additional compound presented here.
Query: recorded result category for CO[C@@H]1[C@H](O)[C@@H](O[C@@H]2C[C@H]3CC[C@@H]4C(CC[C@]5(C)[C@@H](C6=CC(=O)OC6)CC[C@]45O)[C@@]3(C)[C@H](O)C2)O[C@H](C)[C@@H]1O[C@@H]1O[C@H](CO)[C@@H](O)[C@H](O)[C@H]1O (stereo partly drawn) in this test 1

---

Parameter activity, negative = cell killing: see the listing below.
Assay: Drug repurposing screens with cells derived from glioblastoma tumor samples (AID 1345199); note: % is set by controls: 0 for no effect and ±100 for the full control effect; nearly all actives have a fitted effect of over 40% in size
Details: GBM patient neurospheres viability, ATP luminescence, 48 h; at 46.1 µM (top of the series); tumour line C
Inconclusive results are not listed.
Quick reminder: number only, in %, skip the unit.

| MOLECULE | UOM | activity, negative = cell killing |
| --- | --- | --- |
| CCCCCCCCOC(=O)c1ccccc1C(=O)OCCCCCCCC | % | -8.6 |
| Cc1cccc(C(C)c2cnc[nH]2)c1C (stereo not drawn) | % | -27 |

The reported activity, negative = cell killing of the molecule COc1ccc2c3c1O[C@H]1[C@@H](O)C=C[C@H]4[C@@H](C2)NCC[C@@]341 was -25.3

The reported activity, negative = cell killing of the molecule O=[N+]([O-])c1ccccc1 was -9.59

The reported activity, negative = cell killing of the molecule c1csc(C2(N3CCCCC3)CCCCC2)c1 was -24.6

The reported activity, negative = cell killing of the molecule CC1CCC(C(C)C)C(OC(=O)c2ccccc2N)C1 (stereo not drawn) was 13.8

---

Test system: CAOV3
Assay: Primary qHTS to identify gynecologic anti-cancer compounds using libraries of approved drugs and bioactive compounds (AID 1345084); note: % is set by controls: 0 for no effect and ±100 for the full control effect; nearly all actives have a fitted effect of over 55% in size
Settings: Gynecologic cancer cell panel viability, ATPlite luminescence, 48 h; series mostly up to 57.5 µM
Inconclusive results are not listed. Calls of active or inactive are those of the source. Calls come from the whole dose curve; as a rule, active = well fitted cell-killing curve with a large enough effect; inconclusive = small, poorly fitted or top-dose-only effect, or effect the other way; inactive = flat fitted curve, though single readings scatter.
VALUE_KIND: activity change, negative = cytotoxicity

Worked set:
| MOLECULE | activity change, negative = cytotoxicity |
| --- | --- |
| C/C=C(\C)C(=O)O[C@H]1[C@H](OC(C)=O)[C@]2(CO)[C@H](O)[C@H](O)[C@]3(C)C(=CCC4[C@@]5(C)CC[C@H](O[C@@H]6O[C@H](C(=O)O)[C@@H](O)[C@H](O[C@@H]7OC[C@H](O)[C@H](O[C@@H]8OC[C@H](O)[C@H](O)[C@H]8O)[C@H]7O)[C@H]6O[C@@H]6O[C@H](CO)[C@@H](O)[C@H](O)[C@H]6O)C(C)(C)C5CC[C@]43C)[C@@H]2CC1(C)C (some centres undefined) | 0.059% [at 6.55 µM] (inactive) |
| CN1C(=O)c2ccccc2NC(=O)[C@]12O[C@@H]2c1ccccc1 | inactive |
| CN1CCC[C@@H]1Cc1c[nH]c2ccc(Nc3ncccc3[N+](=O)[O-])cc12 | inactive |
| C[C@@]12C[C@@H](c3ccoc3)OC(=O)C1CC[C@]1(C)[C@H]2[C@H]2C=C[C@]1(O)C(=O)O2 (some centres undefined) | inactive |
| CC(C)=C1CC[C@]23CO[C@H](C2)[C@@](O)(C(=O)O)CCC13 (some centres undefined) | inactive |

Entry C/C=C(\C)C(=O)OC1C(C)OC(OC2C(C)OC(OC3CCC4(C)C(=CCC5C4CCC4(C)C(C(C)OC6OC(COC7OC(CO)C(O)C(O)C7O)C(O)C(O)C6O)CCC54O)C3)CC2OC)C(O)C1OC (centres undefined) : activity change, negative = cytotoxicity on CAOV3 = 12.8% [at 11.6 µM] (inactive)

Entry COC(=O)C1(C)CCC(O)C2(C)c3c(O)cc(C(C)C)cc3C(O)C(OC(C)=O)C12 (centres undefined) : activity change, negative = cytotoxicity on CAOV3 = inactive

---

Experiment: Quantitative high throughput screen for delayed death inhibitors of the malarial parasite plastid, 96 hour incubation (AID 488745); note: nearly all actives have a fitted effect of over 70% in size
Conditions: Plasmodium falciparum growth; series mostly up to 28.7 µM
Records with an inconclusive call do not appear. Active and inactive are the calls of the source. The call rests on the fitted dose curve; in most records, active means well fitted inhibition curve with a large enough effect; inconclusive means small, poorly fitted or top-dose-only effect, or effect the other way; inactive means no such curve, though single readings can be large or run the other way.
Your response should consist of one outcome taken from class 1 (active), class 0 (inactive)

Before answering, review these 3 worked examples.
| COMPOUND | CLASS |
| --- | --- |
| CC(C)(C)c1cc(C=C(C#N)C#N)cc(C(C)(C)C)c1O | class 1 |
| CCCN(CCC)[C@H]1CCc2c(F)ccc(O)c2C1 | class 1 |
| NCCCP(=O)(O)O | class 0 |

Query: recorded result category for CCN(CCCl)Cc1ccccc1Br in this test class 0

Query: recorded result category for NNC(=O)c1ccc(O)cc1 in this test class 0

Query: recorded result category for CC(Cc1ccc(OCC(=O)O)cc1)NCC(O)c1cccc(Cl)c1 (stereo not given) in this test class 0

Query: recorded result category for CCCN(CCC)CCc1c[nH]c2ccc(C(N)=O)cc12 in this test class 0

Query: recorded result category for CC(C)CC(NP(=O)(O)O[C@@H]1O[C@@H](C)[C@H](O)[C@@H](O)[C@H]1O)C(=O)NC(Cc1c[nH]c2ccccc12)C(=O)O (stereo not given in full) in this test class 0

Query: recorded result category for NC(=O)c1ccc(OCC(O)CN2CC=C(c3ccc(F)cc3)CC2)cc1 (stereo not given) in this test class 0

Query: recorded result category for CN1C2CCC1CC(OC(c1ccccc1)c1ccccc1N)C2 (stereo not given) in this test class 0

Query: recorded result category for CC1OC1P(=O)(O)O (stereo not given) in this test class 0

Query: recorded result category for CN(C(=O)Cc1ccc(Cl)c(Cl)c1)C(CN1CCCC1)c1cccc(OCC(=O)O)c1 (stereo not given) in this test class 0

Query: recorded result category for C=CCN1CC[C@]23c4c5ccc(O)c4O[C@@H]2/C(=N/N=C2\CC[C@@]4(O)C6Cc7ccc(O)c8c7[C@@]4(CCN6CC=C)[C@@H]2O8)CC[C@@]3(O)C1C5 in this test class 1

Query: recorded result category for COc1ccc2[nH]c3c(c2c1)CCNC3 in this test class 0
